- assay overview: Stability in liver microsomes
- Type: in vitro ADME, human
- details: human, microsomes; 2 μM, 37° C.; read-out: half-life (t1/2) in liver microsomes
- Method: Reactions were terminated by the addition of TFA/H2O ([…], 10% (v/v)). […] The column was equilibrated with TFA/H20, at a flow rate of 1 mL/min. […] The absorbance was monitored at 206 nm using UV detector and peaks were collected manually prior to ESI-MS analysis.
Where a SMILES comes first, the peptide text is derived from it. [ ]: non-standard residue; d: D form. ξ: configuration not given here. ξαMeBip(2'-Et,4'-OMe) = CCc1cc(OC)ccc1-c1ccc(CC(C)(N)C(=O)O)cc1; ξBip(2'-Et-4'-OMe) = CCc1cc(OC)ccc1-c1ccc(CC(N)C(=O)O)cc1; ξαMePhe(2,6-F2) = CC(N)(Cc1c(F)cccc1F)C(=O)O; ξαMe(hhPhe) = CC(N)(CCCc1ccccc1)C(=O)O; ξαMePhe(2-F) = CC(N)(Cc1ccccc1F)C(=O)O; ξhhPhe = NC(CCCc1ccccc1)C(=O)O; ξαMeD = CC(N)(CC(=O)O)C(=O)O; ξαMeP = CC1(C(=O)O)CCCN1; ξαMeS = CC(N)(CO)C(=O)O; Aib = CC(C)(N)C(=O)O
value type: half-life (h)
Write down the numeric answer in h and omit the unit.

Below: 8 molecules and their reported half-life.
molecule	half-life [h]
CCc1cc(OC)ccc1-c1ccc(CC(NC(=O)C(C)(CC(=O)O)NC(=O)C(C)(CO)NC(=O)[C@@H](NC(=O)[C@H](Cc2ccccc2)NC(=O)[C@@H](NC(=O)CNC(=O)[C@H](CCC(=O)O)NC(=O)[C@H](C)NC(=O)[C@H](Cc2c[nH]cn2)NC(=O)[C@@H](N)C(C)C)[C@@H](C)O)[C@@H](C)O)C(=O)NC(C)(CCCc2ccccc2)C(N)=O)cc1 (stereo partly drawn) [compound 112] (H-VHAEGTFT[ξαMeS][ξαMeD][ξBip(2'-Et-4'-OMe)][ξαMe(hhPhe)]-NH2)	0.5
CCc1cc(OC)ccc1-c1ccc(CC(C)(NC(=O)[C@H](CC(=O)O)NC(=O)C(C)(CO)NC(=O)[C@@H](NC(=O)C(C)(Cc2ccccc2F)NC(=O)[C@@H](NC(=O)CNC(=O)[C@H](CCC(=O)O)NC(=O)[C@H](C)NC(=O)[C@H](Cc2c[nH]cn2)NC(=O)[C@@H](N)C(C)C)[C@@H](C)O)[C@@H](C)O)C(=O)NC(C)(CCCc2ccccc2)C(N)=O)cc1 (stereo partly drawn) [compound 170] (H-VHAEGT[ξαMePhe(2-F)]T[ξαMeS]D[ξαMeBip(2'-Et,4'-OMe)][ξαMe(hhPhe)]-NH2)	2
CCc1cc(OC)ccc1-c1ccc(CC(C)(NC(=O)C(C)(CC(=O)O)NC(=O)[C@H](CO)NC(=O)[C@@H](NC(=O)C(C)(Cc2ccccc2F)NC(=O)[C@@H](NC(=O)CNC(=O)[C@H](CCC(N)=O)NC(=O)C(C)(C)NC(=O)[C@H](Cc2c[nH]cn2)NC(=O)[C@@H](N)C(C)C)[C@@H](C)O)[C@@H](C)O)C(=O)NC(C)(CCCc2ccccc2)C(N)=O)cc1 (stereo partly drawn) [compound 191] (H-VH[Aib]QGT[ξαMePhe(2-F)]TS[ξαMeD][ξαMeBip(2'-Et,4'-OMe)][ξαMe(hhPhe)]-NH2)	1
CCc1cc(OC)ccc1-c1ccc(CC(C)(NC(=O)C(C)(CC(=O)O)NC(=O)[C@H](CO)NC(=O)[C@@H](NC(=O)C(C)(Cc2c(F)cccc2F)NC(=O)[C@@H](NC(=O)CNC(=O)[C@H](CCC(=O)O)NC(=O)[C@H](CO)NC(=O)[C@H](Cc2c[nH]cn2)NC(=O)[C@@H](N)C(C)C)[C@@H](C)O)[C@@H](C)O)C(=O)NC(C)(CCCc2ccccc2)C(N)=O)cc1 (stereo partly drawn) [compound 201] (H-VHSEGT[ξαMePhe(2,6-F2)]TS[ξαMeD][ξαMeBip(2'-Et,4'-OMe)][ξαMe(hhPhe)]-NH2)	1
CCc1cc(OC)ccc1-c1ccc(CC(C)(NC(=O)[C@H](CC(=O)O)NC(=O)[C@H](CO)NC(=O)[C@@H](NC(=O)[C@H](Cc2ccccc2)NC(=O)[C@@H](NC(=O)CNC(=O)[C@H](CCC(=O)O)NC(=O)C2(C)CCCN2C(=O)[C@H](Cc2c[nH]cn2)NC(=O)[C@@H](N)C(C)C)[C@@H](C)O)[C@@H](C)O)C(=O)NC(C)(CCCc2ccccc2)C(N)=O)cc1 (stereo partly drawn) [compound 140] (H-VH[ξαMeP]EGTFTSD[ξαMeBip(2'-Et,4'-OMe)][ξαMe(hhPhe)]-NH2)	0.5
CCc1cc(OC)ccc1-c1ccc(CC(C)(NC(=O)C(C)(CC(=O)O)NC(=O)[C@H](CO)NC(=O)[C@@H](NC(=O)C(C)(Cc2ccccc2F)NC(=O)[C@@H](NC(=O)CNC(=O)[C@H](CCC(=O)O)NC(=O)[C@H](CO)NC(=O)[C@H](Cc2c[nH]cn2)NC(=O)[C@@H](N)C(C)C)[C@@H](C)O)[C@@H](C)O)C(=O)NC(CCCc2ccccc2)C(N)=O)cc1 (stereo partly drawn) [compound 69] (H-VHSEGT[ξαMePhe(2-F)]TS[ξαMeD][ξαMeBip(2'-Et,4'-OMe)][ξhhPhe]-NH2)	1
CCc1cc(OC)ccc1-c1ccc(CC(C)(NC(=O)C(C)(CC(=O)O)NC(=O)[C@H](CO)NC(=O)[C@@H](NC(=O)[C@H](Cc2ccccc2)NC(=O)[C@@H](NC(=O)CNC(=O)[C@H](CCC(N)=O)NC(=O)[C@H](C)NC(=O)[C@H](Cc2c[nH]cn2)NC(=O)[C@@H](N)C(C)C)[C@@H](C)O)[C@@H](C)O)C(=O)NC(CCCc2ccccc2)C(N)=O)cc1 (stereo partly drawn) [compound 58] (H-VHAQGTFTS[ξαMeD][ξαMeBip(2'-Et,4'-OMe)][ξhhPhe]-NH2)	2
CCc1cc(OC)ccc1-c1ccc(CC(C)(NC(=O)[C@H](CC(=O)O)NC(=O)C(C)(CO)NC(=O)[C@@H](NC(=O)C(C)(Cc2c(F)cccc2F)NC(=O)[C@@H](NC(=O)CNC(=O)[C@H](CCC(=O)O)NC(=O)[C@H](C)NC(=O)[C@H](Cc2c[nH]cn2)NC(=O)[C@@H](N)C(C)C)[C@@H](C)O)[C@@H](C)O)C(=O)NC(C)(CCCc2ccccc2)C(N)=O)cc1 (stereo partly drawn) [compound 178] (H-VHAEGT[ξαMePhe(2,6-F2)]T[ξαMeS]D[ξαMeBip(2'-Et,4'-OMe)][ξαMe(hhPhe)]-NH2)	2

IN: What value of half-life has been recorded for this entry: CCc1cc(OC)ccc1-c1ccc(CC(C)(NC(=O)C(C)(CC(=O)O)NC(=O)[C@H](CO)NC(=O)[C@@H](NC(=O)[C@H](Cc2ccccc2)NC(=O)[C@@H](NC(=O)CNC(=O)[C@H](CCC(=O)O)NC(=O)C2(C)CCCN2C(=O)[C@H](Cc2c[nH]cn2)NC(=O)[C@@H](N)C(C)C)[C@@H](C)O)[C@@H](C)O)C(=O)NC(C)(CCCc2ccccc2)C(N)=O)cc1 (stereo partly drawn) [compound 188] (H-VH[ξαMeP]EGTFTS[ξαMeD][ξαMeBip(2'-Et,4'-OMe)][ξαMe(hhPhe)]-NH2)
OUT: 2
